Target: T1, Fibrinogen fragment D (human, UniProt P02671 130-216; P02675 164-491; P02679 114-432, limits assumed)
T1 construct: domain: Fragment D (or D-domain); Made by plasmin digestion of human fibrinogen and purified on GPRPAA beads; holds the C-terminal polymerization pockets without the N-terminal knobs; immobilised by amine coupling on the SPR chip; also called D-domain
T1 sequence (looked up) 1: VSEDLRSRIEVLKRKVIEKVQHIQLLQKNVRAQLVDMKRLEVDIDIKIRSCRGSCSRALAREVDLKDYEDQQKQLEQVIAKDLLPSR
T1 sequence (looked up) 2: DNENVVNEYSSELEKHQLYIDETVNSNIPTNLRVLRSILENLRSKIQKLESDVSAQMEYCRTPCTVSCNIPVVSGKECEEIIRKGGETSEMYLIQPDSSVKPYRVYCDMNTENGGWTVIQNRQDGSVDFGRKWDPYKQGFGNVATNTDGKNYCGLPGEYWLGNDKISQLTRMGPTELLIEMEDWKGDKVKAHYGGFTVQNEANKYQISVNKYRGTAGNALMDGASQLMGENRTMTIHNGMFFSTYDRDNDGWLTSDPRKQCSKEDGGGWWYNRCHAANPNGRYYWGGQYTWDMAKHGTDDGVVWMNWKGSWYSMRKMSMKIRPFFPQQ
T1 sequence (looked up) 3: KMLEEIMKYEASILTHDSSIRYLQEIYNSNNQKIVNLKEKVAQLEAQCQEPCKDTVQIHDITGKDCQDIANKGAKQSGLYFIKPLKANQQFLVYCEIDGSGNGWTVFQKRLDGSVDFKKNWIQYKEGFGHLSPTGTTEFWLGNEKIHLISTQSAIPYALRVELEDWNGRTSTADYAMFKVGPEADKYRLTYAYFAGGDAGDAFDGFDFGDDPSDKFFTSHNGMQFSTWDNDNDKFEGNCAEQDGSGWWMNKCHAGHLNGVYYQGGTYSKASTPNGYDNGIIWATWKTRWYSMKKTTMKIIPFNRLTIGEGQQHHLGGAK
Test: SPR, fragment D immobilised, heterogeneous ligand model, site 1 (ka1)
Measured endpoint: kon (M⁻¹ s⁻¹)
Please give a number only; it is taken to be in M⁻¹ s⁻¹.

// lookup kon for GPRPFPAC (Synthetic (GenScript); also called knob 'A' peptide) 21700

// lookup kon for GPRVVAAC (Synthetic (GenScript); also called knob 'A' peptide) 620

// lookup kon for GPRPPERC (Synthetic (GenScript); also called knob 'A' peptide) 3220

// lookup kon for GPRPAAC (Synthetic (GenScript); kept reduced with immobilised TCEP; also called gold standard GPRP mimic; knob 'A' peptide) 2840
